# target system: T1, Recombinant human PSGL-1(ECD)-hFc1 (R&D Systems, Cat. 3345-PS) (human, UniProt Q14242 42-305)
# T1 construct: Bought; Gln42-Val295 counted on AAC50061; also called PSGL-1-Fc; PSGL-1-hFc1 chimera; not shown: human IgG1 Fc, Pro100-Lys330
# T1 sequence: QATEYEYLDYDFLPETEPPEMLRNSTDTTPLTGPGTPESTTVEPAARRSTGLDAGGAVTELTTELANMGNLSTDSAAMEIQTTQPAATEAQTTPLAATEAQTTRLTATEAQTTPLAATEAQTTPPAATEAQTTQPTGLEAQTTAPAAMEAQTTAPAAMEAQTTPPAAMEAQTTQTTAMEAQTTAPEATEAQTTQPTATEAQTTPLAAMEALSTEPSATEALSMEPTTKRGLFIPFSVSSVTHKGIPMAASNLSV
# protocol summary: blocking ELISA vs VISTA-Fc, pH 6.0
measurement kind: % max Block (%)

[[record]]
binder = "19N05 (antibody, V domains shown, From mouse immunisation; only variable domains given) VH: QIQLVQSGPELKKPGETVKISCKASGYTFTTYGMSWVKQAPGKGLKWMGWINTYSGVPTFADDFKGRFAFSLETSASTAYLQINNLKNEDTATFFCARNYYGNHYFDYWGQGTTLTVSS VL: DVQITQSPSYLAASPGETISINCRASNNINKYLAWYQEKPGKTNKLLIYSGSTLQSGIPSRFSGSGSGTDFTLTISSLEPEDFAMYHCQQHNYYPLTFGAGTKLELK"
measurement_kind = "% max Block"
result = 0

[[record]]
binder = "16L15 (antibody, V domains shown, From mouse immunisation; only variable domains given) VH: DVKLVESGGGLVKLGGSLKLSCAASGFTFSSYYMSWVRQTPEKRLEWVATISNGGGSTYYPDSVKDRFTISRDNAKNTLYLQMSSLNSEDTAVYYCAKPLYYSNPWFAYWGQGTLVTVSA VL: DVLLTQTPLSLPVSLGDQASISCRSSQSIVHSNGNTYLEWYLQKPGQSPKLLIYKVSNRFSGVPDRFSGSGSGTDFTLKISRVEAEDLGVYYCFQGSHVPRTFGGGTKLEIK"
measurement_kind = "% max Block"
result = 100

[[record]]
binder = "43B6 (antibody, V domains shown, Control anti-PSGL-1 mAb, recombinant; only variable domains given; also called 43B3) VH: EVQLQQSGPDLVKPGALVKISCKASGYSFTAYYIHWVKQSHGKSLEWIGRVNPNTGGTSYNPKFKGKAILNVDKSSSTAYMELRSLTSEDSAVYYCARSGSPYYRYDDWGQGTTLTVSS VL: ENVLTQSPAIMSASPGEKVTMTCRASSTVNSTYLHWFQQKSGASPKLWIYGSSNLASGVPARFSGSGSGTSYSLTISSVEAEDAATYYCQQYSGYPLTFGAGTTLELK"
measurement_kind = "% max Block"
result = 100

[[record]]
binder = "19I01 (antibody, V domains shown, From mouse immunisation; only variable domains given; also called 19101) VH: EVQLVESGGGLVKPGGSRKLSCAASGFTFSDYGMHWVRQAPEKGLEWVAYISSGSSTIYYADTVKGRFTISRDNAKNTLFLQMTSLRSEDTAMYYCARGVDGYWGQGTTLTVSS VL: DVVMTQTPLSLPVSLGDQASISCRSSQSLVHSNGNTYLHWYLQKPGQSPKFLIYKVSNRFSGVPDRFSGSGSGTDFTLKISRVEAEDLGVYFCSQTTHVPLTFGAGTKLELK"
measurement_kind = "% max Block"
result = 100

[[record]]
binder = "19L04 (antibody, IgG4, V domains shown, From mouse immunisation; only variable domains given) VH: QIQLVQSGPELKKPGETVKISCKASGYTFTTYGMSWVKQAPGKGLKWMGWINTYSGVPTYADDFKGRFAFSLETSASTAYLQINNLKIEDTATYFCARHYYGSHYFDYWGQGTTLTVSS VL: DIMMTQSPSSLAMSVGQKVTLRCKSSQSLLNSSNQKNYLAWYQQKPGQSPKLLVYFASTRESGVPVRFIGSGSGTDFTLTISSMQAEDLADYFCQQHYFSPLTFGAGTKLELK"
measurement_kind = "% max Block"
result = 0

[[record]]
binder = "5E12 (antibody, V domains shown, Mouse hybridoma mAb; only variable domains given) VH: EIQLQQSGAELVRPGASVKLSCTASGFNIKDDYIHWVKQRPEQGLEWIGRIDPANGNTKSAPKFQDKATITADTSSNTAYLHLSSLTSEDTAVYYCSIRFAYWGQGTLVTVSA VL: DVVMTQTPLSLSVSLGDQASISCRSSQSLVYRNGDTYLHWFLQKPGQSPKLLIYKVSNRFSGVPDRFSGSGSGTDFTLKISRVEAEDLGIYFCSQNTHVPYTFGGGTKLEIK"
measurement_kind = "% max Block"
result = 0

[[record]]
binder = "15A7 (antibody, V domains shown, Control mAb, recombinant; also called h15A7; 15A17) VH: EVQLVESGGGLVQPGGSLRLSCAASGFTFSSFGMHWVRQAPGKGLEWVAYINGGSSTIFYANAVKGRFTISRDNAKNTLYLQMNSLRAEDTAVYYCARYASYGGGAMDYWGQGTLVTVSS VL: DIQMTQSPSSLSASVGDRVTITCRSSQSIVHNDGNTYFEWYQQKPGKAPKLLIYKVSNRFSGVPSRFSGSGSGTHFTLTISSLQPEDFATYYCFQGSYVPLTFGQGTKVEIK"
measurement_kind = "% max Block"
result = 0

